Catalogue of molecules with associated Efs201 MIC
- Test system: Enterococcus faecalis EFS.201 (ATCC 49452)
- Format: cell-based
- recorded conditions: MHBc with 50 mg/L calcium, 18-20 hours at 37° C.
quantity measured: Efs201 MIC

molecule	quantity measured	result
CCCCCOc1ccc(/C=C/C(=O)N[C@@H](Cc2c[nH]c3ccccc23)C(=O)N[C@H](CC(N)=O)C(=O)N[C@@H](CC(=O)O)C(=O)N[C@@H]2C(=O)NCC(=O)N[C@@H](CCCN)C(=O)N[C@@H](CC(=O)O)C(=O)N[C@H](C)C(=O)N[C@@H](CC(=O)O)C(=O)NCC(=O)N[C@H](CO)C(=O)N[C@@H]([C@H](C)CC(=O)O)C(=O)N[C@@H](CC(=O)c3ccccc3N)C(=O)O[C@@H]2C)cc1 [Compound 41]	Efs201 MIC	4 µg/mL
CCCCCCOc1ccc(/C=C/C(=O)N[C@@H](Cc2c[nH]c3ccccc23)C(=O)N[C@H](CC(N)=O)C(=O)N[C@@H](CC(=O)O)C(=O)N[C@@H]2C(=O)NCC(=O)N[C@@H](CCCN)C(=O)N[C@@H](CC(=O)O)C(=O)N[C@H](C)C(=O)N[C@@H](CC(=O)O)C(=O)NCC(=O)N[C@H](CO)C(=O)N[C@@H]([C@H](C)CC(=O)O)C(=O)N[C@@H](CC(=O)c3ccccc3N)C(=O)O[C@@H]2C)cc1 [Compound 42]	Efs201 MIC	1 µg/mL
CCCCCC1CCC(NC(=O)N[C@@H](Cc2c[nH]c3ccccc23)C(=O)N[C@H](CC(N)=O)C(=O)N[C@@H](CC(=O)O)C(=O)N[C@@H]2C(=O)NCC(=O)N[C@@H](CCCN)C(=O)N[C@@H](CC(=O)O)C(=O)N[C@H](C)C(=O)N[C@@H](CC(=O)O)C(=O)NCC(=O)N[C@H](CO)C(=O)N[C@@H]([C@H](C)CC(=O)O)C(=O)N[C@@H](CC(=O)c3ccccc3N)C(=O)O[C@@H]2C)CC1 (stereo partly drawn) [Compound 17]	Efs201 MIC	1 µg/mL

* * *

Below, each entry is listed with its recorded Sa278 MIC.
- System: Staphylococcus aureus SAU.278, Daptomycin resistant mutant (D10)
- Assay type: cell-based
- recorded conditions: MHBc with 50 mg/L calcium, 18-20 hours at 37° C.
quantity measured: Sa278 MIC (µg/mL)

compound	unit abbrev	limit qualifier	numeric result
CC(C)Cc1ccc(C(C)C(=O)N[C@@H](Cc2c[nH]c3ccccc23)C(=O)N[C@H](CC(N)=O)C(=O)N[C@@H](CC(=O)O)C(=O)N[C@@H]2C(=O)NCC(=O)N[C@@H](CCCN)C(=O)N[C@@H](CC(=O)O)C(=O)N[C@H](C)C(=O)N[C@@H](CC(=O)O)C(=O)NCC(=O)N[C@H](CO)C(=O)N[C@@H]([C@H](C)CC(=O)O)C(=O)N[C@@H](CC(=O)c3ccccc3N)C(=O)O[C@@H]2C)cc1 (single isomer, unassigned) [45 isomer II]	µg/mL	>	32
CCCCCC1CCC(C(=O)N[C@@H](Cc2c[nH]c3ccccc23)C(=O)N[C@H](CC(N)=O)C(=O)N[C@@H](CC(=O)O)C(=O)N[C@@H]2C(=O)NCC(=O)N[C@@H](CCCN)C(=O)N[C@@H](CC(=O)O)C(=O)N[C@H](C)C(=O)N[C@@H](CC(=O)O)C(=O)NCC(=O)N[C@H](CO)C(=O)N[C@@H]([C@H](C)CC(=O)O)C(=O)N[C@@H](CC(=O)c3ccccc3N)C(=O)O[C@@H]2C)CC1 (stereo partly drawn)	µg/mL	=	8
CCCCCCCCCCCCCC(=O)N[C@@H](Cc1c[nH]c2ccccc12)C(=O)N[C@H](CC(N)=O)C(=O)N[C@@H](CC(=O)O)C(=O)N[C@@H]1C(=O)NCC(=O)N[C@@H](CCCN)C(=O)N[C@@H](CC(=O)O)C(=O)N[C@H](C)C(=O)N[C@@H](CC(=O)O)C(=O)NCC(=O)N[C@H](CO)C(=O)N[C@@H]([C@H](C)CC(=O)O)C(=O)N[C@@H](CC(=O)c2ccccc2N)C(=O)O[C@@H]1C	µg/mL	=	2

* * *

- Test system: Staphylococcus aureus SAU.399 (ATCC 43300), Methicillin and Oxacillin Resistant
- Type: cell-based
- recorded conditions: ATCC 43300
- Procedure: Compounds according to Formula I were tested for antimicrobial activity against a panel of organisms. […] In all cases the final concentration of dimethyl sulfoxide incubated with cells is less than or equal to 1%. […] Following incubation, (18-20 hours at 37° C. with aeration at 200 rpm) growth was confirmed visually by placing plates over a viewing apparatus (stand with a mirror underneath) and then the optical density (OD600) was measured using a SpectraMax 340PC^384 plate reader. […]

compound	unit abbrev	Sa399 MIC
CCCCCCC12CCC(C(=O)N[C@@H](Cc3c[nH]c4ccccc34)C(=O)N[C@H](CC(N)=O)C(=O)N[C@@H](CC(=O)O)C(=O)N[C@@H]3C(=O)NCC(=O)N[C@@H](CCCN)C(=O)N[C@@H](CC(=O)O)C(=O)N[C@H](C)C(=O)N[C@@H](CC(=O)O)C(=O)NCC(=O)N[C@H](CO)C(=O)N[C@@H]([C@H](C)CC(=O)O)C(=O)N[C@@H](CC(=O)c4ccccc4N)C(=O)O[C@@H]3C)(CC1)CC2	µg/mL	0.5
CCCCCCCc1csc(C(=O)N[C@@H](Cc2c[nH]c3ccccc23)C(=O)N[C@H](CC(N)=O)C(=O)N[C@@H](CC(=O)O)C(=O)N[C@@H]2C(=O)NCC(=O)N[C@@H](CCCN)C(=O)N[C@@H](CC(=O)O)C(=O)N[C@H](C)C(=O)N[C@@H](CC(=O)O)C(=O)NCC(=O)N[C@H](CO)C(=O)N[C@@H]([C@H](C)CC(=O)O)C(=O)N[C@@H](CC(=O)c3ccccc3N)C(=O)O[C@@H]2C)c1	µg/mL	0.5
C[C@H](CC(=O)O)[C@@H]1NC(=O)[C@@H](CO)NC(=O)CNC(=O)[C@H](CC(=O)O)NC(=O)[C@@H](C)NC(=O)[C@H](CC(=O)O)NC(=O)[C@H](CCCN)NC(=O)CNC(=O)[C@@H](NC(=O)[C@H](CC(=O)O)NC(=O)[C@@H](CC(N)=O)NC(=O)[C@H](Cc2c[nH]c3ccccc23)NC(=O)C2CCC(c3ccc(Cl)cc3)CC2)[C@@H](C)OC(=O)[C@H](CC(=O)c2ccccc2N)NC1=O (stereo partly drawn)	µg/mL	4

* * *

Efs201 MIC by entry:
- System: Enterococcus faecalis EFS.201 (ATCC 49452)
- Assay type: cell-based
- recorded conditions: ATCC 49452
- Experimental: Compounds according to Formula I were tested for antimicrobial activity against a panel of organisms. […] In all cases the final concentration of dimethyl sulfoxide incubated with cells is less than or equal to 1%. […] Following incubation, (18-20 hours at 37° C. with aeration at 200 rpm) growth was confirmed visually by placing plates over a viewing apparatus (stand with a mirror underneath) and then the optical density (OD600) was measured using a SpectraMax 340PC^384 plate reader. […]

compound	unit abbrev	Efs201 MIC
CCCCCCCC(C)C(=O)N[C@@H](Cc1c[nH]c2ccccc12)C(=O)N[C@H](CC(N)=O)C(=O)N[C@@H](CC(=O)O)C(=O)N[C@@H]1C(=O)NCC(=O)N[C@@H](CCCN)C(=O)N[C@@H](CC(=O)O)C(=O)N[C@H](C)C(=O)N[C@@H](CC(=O)O)C(=O)NCC(=O)N[C@H](CO)C(=O)N[C@@H]([C@H](C)CC(=O)O)C(=O)N[C@@H](CC(=O)c2ccccc2N)C(=O)O[C@@H]1C (stereo partly drawn)	µg/mL	16
C[C@H](CC(=O)O)[C@@H]1NC(=O)[C@@H](CO)NC(=O)CNC(=O)[C@H](CC(=O)O)NC(=O)[C@@H](C)NC(=O)[C@H](CC(=O)O)NC(=O)[C@H](CCCN)NC(=O)CNC(=O)[C@@H](NC(=O)[C@H](CC(=O)O)NC(=O)[C@@H](CC(N)=O)NC(=O)[C@H](Cc2c[nH]c3ccccc23)NC(=O)c2ccc(-c3ccc(Cl)cc3)cc2)[C@@H](C)OC(=O)[C@H](CC(=O)c2ccccc2N)NC1=O	µg/mL	16
C[C@H](CC(=O)O)[C@@H]1NC(=O)[C@@H](CO)NC(=O)CNC(=O)[C@H](CC(=O)O)NC(=O)[C@@H](C)NC(=O)[C@H](CC(=O)O)NC(=O)[C@H](CCCN)NC(=O)CNC(=O)[C@@H](NC(=O)[C@H](CC(=O)O)NC(=O)[C@@H](CC(N)=O)NC(=O)[C@H](Cc2c[nH]c3ccccc23)NC(=O)Cc2ccc(-c3ccc(Cl)cc3)cc2)[C@@H](C)OC(=O)[C@H](CC(=O)c2ccccc2N)NC1=O	µg/mL	8

* * *

- System: Staphylococcus aureus SAU.399 (ATCC 43300), Methicillin and Oxacillin Resistant
- Type: cell-based
- recorded conditions: ATCC 43300
Each entry below lists one item and its recorded Sa399 MIC value.
quantity measured: Sa399 MIC (µg/mL)

compound	system	quantity measured	unit abbrev	numeric result
CCCCCCCCCC(=O)N[C@@H](Cc1c[nH]c2ccccc12)C(=O)N[C@H](CC(N)=O)C(=O)N[C@@H](CC(=O)O)C(=O)N[C@@H]1C(=O)NCC(=O)N[C@@H](CCCN)C(=O)N[C@@H](CC(=O)O)C(=O)N[C@H](C)C(=O)N[C@@H](CC(=O)O)C(=O)NCC(=O)N[C@H](CO)C(=O)N[C@@H]([C@H](C)CC(=O)O)C(=O)N[C@@H](CC(=O)c2ccccc2N)C(=O)O[C@@H]1C [Daptomycin, reference compound]	Staphylococcus aureus SAU.399 (ATCC 43300), Methicillin and Oxacillin Resistant	Sa399 MIC	µg/mL	0.5
CC(C)CCCCCCCCCCC(=O)N[C@@H](Cc1c[nH]c2ccccc12)C(=O)N[C@H](CC(N)=O)C(=O)N[C@@H](CC(=O)O)C(=O)N[C@@H]1C(=O)NCC(=O)N[C@@H](CCCN)C(=O)N[C@@H](CC(=O)O)C(=O)N[C@H](C)C(=O)N[C@@H](CC(=O)O)C(=O)NCC(=O)N[C@H](CO)C(=O)N[C@@H]([C@H](C)CC(=O)O)C(=O)N[C@@H](CC(=O)c2ccccc2N)C(=O)O[C@@H]1C	Staphylococcus aureus SAU.399 (ATCC 43300), Methicillin and Oxacillin Resistant	Sa399 MIC	µg/mL	0.25
CCCCCCCC(C)C(=O)N[C@@H](Cc1c[nH]c2ccccc12)C(=O)N[C@H](CC(N)=O)C(=O)N[C@@H](CC(=O)O)C(=O)N[C@@H]1C(=O)NCC(=O)N[C@@H](CCCN)C(=O)N[C@@H](CC(=O)O)C(=O)N[C@H](C)C(=O)N[C@@H](CC(=O)O)C(=O)NCC(=O)N[C@H](CO)C(=O)N[C@@H]([C@H](C)CC(=O)O)C(=O)N[C@@H](CC(=O)c2ccccc2N)C(=O)O[C@@H]1C (stereo partly drawn)	Staphylococcus aureus SAU.399 (ATCC 43300), Methicillin and Oxacillin Resistant	Sa399 MIC	µg/mL	1
